- assay-notes: Human HepG2 cell viability assay in 384 well format
- Format: toxicity, cell-based
- Set-up: dose 125 nL, time 70.5 hour; concentration not given beside the values
- experimental-context: HepG2 cells, read-out: Inhibition
cytotoxicity at 70.5 h by entry:

molecule: CN1CCN(Cc2cn3c(n2)CN(C(=O)N2CCCC2)CC3)CC1
readout-unit: %
cytotoxicity at 70.5 h: 0.892
//
molecule: CN(C)c1ncccc1CNC(=O)NCc1cccs1
readout-unit: %
cytotoxicity at 70.5 h: 1.41
//
molecule: Cc1cc(C(=O)CN2CCN(c3cnccn3)CC2)c(C)n1C(C)C
readout-unit: %
cytotoxicity at 70.5 h: -10.7
//
molecule: CN(Cc1cccs1)C(=O)CN1CCCCC1Cn1cncn1 (stereo unspecified)
readout-unit: %
cytotoxicity at 70.5 h: 23.2
//
molecule: CC(C)COCC(NC(=O)CSc1nnc[nH]1)c1ccco1 (stereo unspecified)
readout-unit: %
cytotoxicity at 70.5 h: -12.5
//
molecule: CCC1=N[C@@]2(CC[C@@H]3CN(C(=O)NCC(C)C)C[C@@H]32)C(=O)N1CC(C)C
readout-unit: %
cytotoxicity at 70.5 h: -9.11
//
molecule: Cn1ncc(C2CC(=O)NCc3nc4ccccn4c32)c1C1CC1 (stereo unspecified)
readout-unit: %
cytotoxicity at 70.5 h: -11.4
//
molecule: Cn1nnc2c1C(COCC1CC1)CN(C(=O)Cc1ccccn1)C2 (stereo unspecified)
readout-unit: %
cytotoxicity at 70.5 h: -2.19
//
molecule: Cc1cc(CCC(N)=O)cc(C2CCCN2Cc2ccnn2C)n1 (stereo unspecified)
readout-unit: %
cytotoxicity at 70.5 h: -6.78
//
molecule: NC(=O)CN(C(=O)c1c[nH]c2ncccc12)C1CCCC1
readout-unit: %
cytotoxicity at 70.5 h: 3.16
//
molecule: CC(Cn1cncn1)NC(=O)c1cn(Cc2ccccc2F)nn1 (stereo unspecified)
readout-unit: %
cytotoxicity at 70.5 h: 0.213
//
molecule: CN(C)[C@@H]1CCN(C(=O)c2cccc(C#N)c2)[C@H]1Cc1cnn(C)c1
readout-unit: %
cytotoxicity at 70.5 h: -8.57
//
molecule: Cc1cnn(CCNCC(=O)NC2(C#N)CCCC2)c1
readout-unit: %
cytotoxicity at 70.5 h: -0.423
//
molecule: CCc1nc(C2CCCN2Cc2nnc(C3CC3)o2)no1 (stereo unspecified)
readout-unit: %
cytotoxicity at 70.5 h: -3.82
//
molecule: Cc1cc(CN2CCC(CNS(=O)(=O)c3c(C)noc3C)CC2)c(C)o1
readout-unit: %
cytotoxicity at 70.5 h: 2.34
//
molecule: Fc1ccc(CN2Cc3nccn3CC(CN3CCOCC3)C2)cc1 (stereo unspecified)
readout-unit: %
cytotoxicity at 70.5 h: -8.01

* * *

- assay-notes: Human HepG2 cell viability assay in 384 well format
- Assay type: toxicity, cell-based
- Design: dose 125 nL, time 70.5 hour; concentration not given beside the values
- experimental-context: HepG2 cells, read-out: Inhibition
cytotoxicity at 70.5 h by entry:

molecule: O=C(NCC1CC1)C1=NOC2(CCN(S(=O)(=O)c3ccc(F)cc3)C2)C1 (centres undefined)
cytotoxicity at 70.5 h / %: -0.024
--
molecule: CN(C)S(=O)(=O)N1CCC(Oc2ccc(C#N)cn2)CC1
cytotoxicity at 70.5 h / %: -1.45
--
molecule: CN(C)C(=O)COCC1C[C@@H]2OCCN(Cc3ccco3)[C@H]2C1 (some centres undefined)
cytotoxicity at 70.5 h / %: -15.5
--
molecule: Cc1cccc(CN2C[C@H](OCc3ccccn3)[C@H]3COC[C@H]32)n1
cytotoxicity at 70.5 h / %: 5.07
--
molecule: COc1ccc(NCC2(O)CCNCC2)cc1OC
cytotoxicity at 70.5 h / %: 6.97
--
molecule: O=C(c1ccc(-c2cccc3c2CCNC3)o1)N1CCCC1
cytotoxicity at 70.5 h / %: -9.64
--
molecule: Cc1ccc(N2CCO[C@H]3CN(Cc4cnn(C)c4)C[C@H]32)nn1
cytotoxicity at 70.5 h / %: -19.2
--
molecule: CCn1ccnc1CN1CCCN(C(=O)c2cccn2C)CC1
cytotoxicity at 70.5 h / %: 23.9
--
molecule: O=C(Nc1cccc(N2CCN(CC3CC3)CC2)c1)C1CCCO1 (centres undefined)
cytotoxicity at 70.5 h / %: 17
--
molecule: O=C(c1ccc(F)cc1)N1CCC2(CC1)CC(N1CCOCC1)C2
cytotoxicity at 70.5 h / %: -13.1
--
molecule: COc1ccc(CN2CCCn3cnc(COC(C)C)c3C2)cc1
cytotoxicity at 70.5 h / %: 23.2
--
molecule: COC(=O)c1ccc(N2CCN(C(=O)c3ccc(O)nc3)C(C)C2)cc1 (centres undefined)
cytotoxicity at 70.5 h / %: -7.53
--
molecule: Cc1ccc(CN2CC3(CCN(S(=O)(=O)c4ccccc4)C3)C2)o1
cytotoxicity at 70.5 h / %: 24.3
--
molecule: COCc1cnc2n1CCN(C(=O)C1=CCCCC1)C2C (centres undefined)
cytotoxicity at 70.5 h / %: 17.6
